Target: Eukaryotic translation initiation factor 4E/Eukaryotic translation initiation factor 4E-binding protein 1 (Homo sapiens, UniProt P06730)
Sequence (P06730 whole entry): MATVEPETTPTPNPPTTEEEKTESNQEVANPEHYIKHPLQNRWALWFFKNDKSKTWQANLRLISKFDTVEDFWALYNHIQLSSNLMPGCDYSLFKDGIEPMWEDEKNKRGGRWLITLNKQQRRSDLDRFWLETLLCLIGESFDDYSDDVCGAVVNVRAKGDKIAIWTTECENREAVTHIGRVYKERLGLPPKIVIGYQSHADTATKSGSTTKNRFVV
Sequence (Q13541 whole entry, further chain): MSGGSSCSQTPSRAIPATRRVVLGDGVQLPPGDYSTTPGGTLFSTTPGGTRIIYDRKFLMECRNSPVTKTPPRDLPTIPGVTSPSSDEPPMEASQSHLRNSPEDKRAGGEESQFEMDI
Assay: Inhibition of Halo-tagged biotinylated human eIF4E expressed in Escherichia coli/Halo-tagged methyltetrazine-labelled human 4E-BP1 expressed in Escherichia coli protein-protein interaction incubated for 1 hr by catalytic enzyme-linked click chemistry assay
Bridge positions count the residues as written; N and C are the ends. Square brackets hold non-standard residues; d marks the D form. Peptide text beside a SMILES is read from it. S5 = C=CCCC[C@](C)(N)C(=O)O
Each entry below lists one item and its recorded IC50 value.

compound	IC50
CC[C@H](C)[C@H](NC(=O)[C@H](CCCNC(=N)N)NC(=O)[C@@H](NC(=O)CNC(C)=O)[C@@H](C)O)C(=O)N[C@H](C(=O)N[C@@H](Cc1ccc(O)cc1)C(=O)N[C@@H](CC(=O)O)C(=O)N[C@@H](CCCNC(=N)N)C(=O)N[C@@]1(C)CCC/C=C\CCC[C@@](C)(C(=O)N[C@@H](CS)C(=O)N[C@@H](CCCNC(=N)N)C(=O)N[C@@H](CC(N)=O)C(N)=O)NC(=O)[C@H](CCSC)NC(=O)[C@H](CC(C)C)NC(=O)[C@H](Cc2ccccc2)NC1=O)[C@@H](C)CC	3.1 to 6.7 nM
CC(=O)N[C@@H](CCCCN)C(=O)N[C@@H](CCCCN)C(=O)N[C@@H](CCCNC(=N)N)C(=O)N[C@@H](Cc1ccc(O)cc1)C(=O)N[C@@H](CC(=O)O)C(=O)N[C@@H](CCCNC(=N)N)C(=O)N[C@@]1(C)CCC/C=C\CCC[C@@](C)(C(=O)N[C@@H](Cc2ccccc2)C(=O)N[C@@H](CCC(N)=O)C(=O)N[C@@H](Cc2ccccc2)C(N)=O)NC(=O)[C@H](CC(C)C)NC(=O)[C@H](CC(C)C)NC(=O)[C@H](Cc2ccccc2)NC1=O (Ac-KKRYDR[S5]FLL[S5]FQF-NH2; staple (Z) 7-11)	4500 to 7300 nM
CC(=O)N[C@@H](CCCCN)C(=O)N[C@@H](CCCCN)C(=O)N[C@@H](CCCNC(=N)N)C(=O)N[C@@H](Cc1ccc(O)cc1)C(=O)N[C@@H](CC(=O)O)C(=O)N[C@@H](CCCNC(=N)N)C(=O)N[C@@H](CCC(=O)O)C(=O)N[C@@H](Cc1ccccc1)C(=O)N[C@@H](CC(C)C)C(=O)N[C@@H](CC(C)C)C(=O)NCC(=O)N[C@@H](Cc1ccccc1)C(=O)N[C@@H](CCC(N)=O)C(=O)N[C@@H](Cc1ccccc1)C(N)=O	137 to 195 nM

Turning to the following compound.
I have this compound here, CC(=O)N[C@@H](CCCCN)C(=O)N[C@@H](CCCCN)C(=O)N[C@@H](CCCNC(=N)N)C(=O)N[C@@H](Cc1ccc(O)cc1)C(=O)N[C@@H](CO)C(=O)N[C@@H](CCCNC(=N)N)C(=O)N[C@@]1(C)CCC/C=C\CCC[C@@](C)(C(=O)N[C@@H](CC(C)C)C(N)=O)NC(=O)[C@H](CC(C)C)NC(=O)[C@H](CC(C)C)NC(=O)[C@H](CCC(N)=O)NC1=O , and I need its recorded IC50.
16.6 to 31 nM

* * *

Target: Eukaryotic translation initiation factor 4E/Eukaryotic translation initiation factor 4E-binding protein 1 (Homo sapiens, UniProt P06730)
Assay: Inhibition of Halo-tagged biotinylated human eIF4E expressed in Escherichia coli/Halo-tagged methyltetrazine-labelled human 4E-BP1 expressed in Escherichia coli protein-protein interaction incubated for 1 hr by catalytic enzyme-linked click chemistry assay
measurement.kind: IC50

I have this substance here, Ac-KKRYSREQLLGL-NH2 , and I need its recorded IC50.
384 to 633 nM
